# assayProtocol: Human HepG2 cell viability assay in 384 well format
# Assay type: toxicity, cell-based
# Parameters: dose 125 nL, time 70.5 hour; concentration not given beside the values
# conditionNotes: HepG2 cells, read-out: Inhibition
propertyLabel: cytotoxicity at 70.5 h (%)
One number for each entry, in %.

# count of solved cases: 5
C[C@@H]1CN(c2nc3c(cc2C(N)=O)CCC3)C[C@]1(C)O ... -15
CCO[C@H]1C[C@@H](O)C12CCN(S(=O)(=O)c1ccccc1OC)CC2 ... -13.9
O=c1[nH]c(C2CCOC2)nc2ccc(Br)cc12 (configuration not stated) ... -2.39
O=C1CCc2cc(-c3csc(CCN4CCCC4=O)n3)ccc2N1 ... -14.6
CN(CC(=O)NC(N)=O)CC1(c2ccc(Br)cc2)CC1 ... -1.35

Take each entry in turn and give its cytotoxicity at 70.5 h.
1. CC(CN1CCOCC1)NCC1CCN(c2cnn(C)c(=O)c2)CC1 (configuration not stated)
2. CC1CCCCN1C(=O)c1coc(COc2cccc3cnccc23)n1 (configuration not stated)
3. N#Cc1ccccc1OCCN1CCCC1Cn1cncn1 (configuration not stated)
4. CC(C)Oc1ccc(C(=O)NCc2ccnc(N3CCCC3)c2)cn1
5. CCn1nc(C)c2ncnc(NCCn3cccn3)c21
6. COc1ccc(CN2CC[C@@H](N)[C@@H](OC)C2)cc1Cn1cncn1
7. COCCN1CCC2(CC1)CC(OCC1CC1)c1ccc(C)cc12 (configuration not stated)

// result
1: -4.8; 2: -6.78; 3: 3.66; 4: -10.1; 5: -1.42; 6: -6.47; 7: 5.78

----------
# assayProtocol: Human HepG2 cell viability assay in 384 well format
# Assay type: toxicity, cell-based
# Set-up: dose 125 nL, time 70.5 hour; concentration not given beside the values
# conditionNotes: HepG2 cells, read-out: Inhibition
propertyLabel: cytotoxicity at 70.5 h (%)
Numbers only, in %.

# count of solved cases: 8
O=C(CCO)N[C@H]1CN(CC2CCC2)C[C@@H]1c1ccccc1 ... -3.06
CCOc1ccc2[nH]c(=O)c(CN3CCCC3c3ccccn3)cc2c1 (centres undefined) ... -11.8
Cc1cccc(C)c1Nc1noc2c1CN(C(=O)c1ccn(C)n1)CC2 ... 46.4
CN1CCCCC1c1ccc(-n2ccnc2)nc1 (centres undefined) ... -2.08
CN(Cc1nc(Cc2cccc(F)c2)no1)C1CCOCC1 ... -13.9
Cc1cc(N(C)C)nc(N2CCn3c(nnc3C(C)C)C2)n1 ... 13.6
Cc1noc(C)c1CN1CCN(CCN(C)C)c2ncccc2C1 ... -2.96
CCS(=O)(=O)CC(=O)NC(c1ccc(F)cc1)C1CCCC1 (centres undefined) ... 1.5

Take each entry in turn and give its cytotoxicity at 70.5 h.
1. COCCO[C@H]1CCN(C(=O)C2CCOCC2)[C@H]1Cc1ccncc1
2. CCC(=O)Nc1ccc2c(c1)CN(C(=O)c1ccco1)CC2
3. CSCC(CCO)NC(=O)c1cccc(Cl)c1F (centres undefined)
4. CC(NC(=O)NC1CCN(Cc2ccccn2)CC1)c1nncn1C (centres undefined)

// result
29.3
66.1
-16.7
-2

----------
# assayProtocol: Human HepG2 cell viability assay in 384 well format
# Assay type: toxicity, cell-based
# Parameters: dose 125 nL, time 70.5 hour; concentration not given beside the values
# conditionNotes: HepG2 cells, read-out: Inhibition
Would you kindly list cytotoxicity at 70.5 h for each of these compounds?

# count of solved cases: 5
O=C(COCc1nc(-c2ccncc2)no1)N1CCCC1 ... -4.88%
CC(C)N1CCO[C@@H]2CN(C(=O)Cc3cccs3)CC[C@@H]2C1 ... -6.99%
CCCS(=O)(=O)c1ncc(CN2CCC(CO)CC2)n1CC1CCCO1 (centres undefined) ... -4.07%
CNC(=O)c1cccc(CCNc2ncc(Br)cn2)c1 ... 7.32%
COC(=O)c1ccc(NC(C)c2ccc3c(c2)NC(=O)CO3)nn1 (centres undefined) ... -1.28%

Take each entry in turn and give its cytotoxicity at 70.5 h.
1. COc1cccc2sc(N3CC(OC(C)=O)C3)nc12
2. O=C1CSC(c2ccsc2)c2c(n(C3CCOCC3)[nH]c2=O)N1 (centres undefined)
3. Cc1c(C2CCCN(C(=O)c3cccnc3)C2)n2c(nc1=O)CCC2 (centres undefined)
4. Cc1ccccc1Cc1nc(CSc2nnc(N)n2C)no1
5. CC(c1ccco1)n1cc(-c2cc(CN3CCCC3)cs2)nn1 (centres undefined)
6. O=C1CCC2(CCCN(CCn3cc(Cl)cn3)C2)CN1C1CCCC1 (centres undefined)
7. CCCc1noc(CCC(=O)N2CCCC(n3ccnc3C)C2)n1 (centres undefined)

// result
["-11.2%", "27.6%", "-8.11%", "-17.8%", "-0.331%", "-19.7%", "-9.38%"]

Take each entry in turn and give its cytotoxicity at 70.5 h.
1. CCc1ocnc1C(=O)N1CCC2(CC1)OCC(C)O2 (centres undefined)
2. CCc1nsc(N2CCCN(C(=O)c3ccc(CC)o3)CC2)n1
3. NC(=O)c1nc(CC(=O)Nc2cccc(C(F)(F)F)c2)no1
4. Cc1ccc(NC(=O)CNC(C)CN2CCOCC2)c(F)c1 (centres undefined)
5. Cc1ccc(CN2CC[C@H]3CO[C@H](CN(C)C)[C@H]3C2)o1
6. CCCOC1CCCN(Cc2nc(-c3ccc(F)cc3F)oc2C)C1 (centres undefined)
7. CC1COCCN1C(=O)c1ccc(=O)n(CCOc2ccccc2)n1 (centres undefined)
8. COc1c(C)cnc(CN2CCCC2c2noc(C3CC3)n2)c1C (centres undefined)

// result
["-5.57%", "-11%", "0.00692%", "-9.12%", "-11.2%", "-5.84%", "-5.11%", "1.14%"]
